Origin of values: PubChem BioAssay (NCATS)

# System: SC27B
# Method Description: qHTS profiling for inhibitors of Plasmodium falciparum proliferation (AID 504749); also: nearly all actives have a fitted effect of over 60% in size
# Measurement Parameters: P. falciparum in erythrocytes, SYBR Green DNA, 72 h; series mostly up to 28.7 µM
Results filed as inconclusive are left out. Activity calls are given as the source filed them. Calls follow the shape of the dose curve; as a rule, active = well fitted inhibition curve with a large enough effect; inconclusive = small, poorly fitted or top-dose-only effect; inactive = flat fitted curve, though single readings scatter.
Your response should consist of one outcome taken from active, inactive

{"Compound": "CN(C)CCc1ccc(O)cc1", "Assayed Target": "SC27B", "Answer Label": "inactive"}
{"Compound": "Cc1ccc(-c2nc3ccc(C)cn3c2CC(=O)N(C)C)cc1", "Assayed Target": "SC27B", "Answer Label": "inactive"}
{"Compound": "CC[N+](CC)(CC)CC", "Assayed Target": "SC27B", "Answer Label": "inactive"}
{"Compound": "CN1CCN(C(=O)O[C@H]2c3nccnc3C(=O)N2c2ccc(Cl)cn2)CC1", "Assayed Target": "SC27B", "Answer Label": "inactive"}
{"Compound": "CC(CCc1ccccc1)NC(C)C(O)c1ccc(O)cc1 (stereo unspecified)", "Assayed Target": "SC27B", "Answer Label": "inactive"}
{"Compound": "O=P1(NCCCl)OCCCN1CCCl (stereo unspecified)", "Assayed Target": "SC27B", "Answer Label": "inactive"}

Request: What did the test return for "CCN(C(C)=O)c1cccc(-c2ccnc3c(C#N)cnn23)c1" ?
Result: inactive

Request: Moving on to "Cc1cccc(C)c1NC1=NCCCS1"
Result: inactive

Request: Moving on to "CCN(CC)CCN1C(=O)CN=C(c2ccccc2F)c2cc(Cl)ccc21"
Result: inactive

Request: Moving on to CCCC1CCCCN1 (stereo unspecified)
Result: inactive

Request: Moving on to "CCOC(=O)C1(c2ccccc2)CCN(CCC(C#N)(c2ccccc2)c2ccccc2)CC1"
Result: active

Request: Moving on to "CC[C@@H](CO)NC(=O)[C@@H]1C=C2c3cccc4[nH]cc(c34)C[C@H]2N(C)C1"
Result: inactive

Request: Moving on to CCC(C(N)=O)N1CCCC1=O (stereo unspecified)
Result: inactive

Request: Moving on to "Cc1ncc(CNC(=O)N(CCCl)N=O)c(N)n1"
Result: inactive

Request: Moving on to "CN1C(=S)CN=C(c2ccccc2)c2cc(Cl)ccc21"
Result: inactive

Request: Moving on to CC(C)NCC(O)c1ccccc1Cl (stereo unspecified)
Result: active

Request: Moving on to "C#CCOC(C(=O)OCCN(C)C)(c1ccccc1)c1ccccc1"
Result: inactive

Request: Moving on to "NN=C(N)N"
Result: inactive

Request: Moving on to "FC(F)(F)c1cccc(C2=CCN(CCc3ccc4ccccc4c3)CC2)c1"
Result: inactive

Request: Moving on to "O=c1[nH]c2ccccc2n1C1CCN(CCCC(c2ccc(F)cc2)c2ccc(F)cc2)CC1"
Result: inactive

Request: Moving on to "c1ccc(C2CC2)c(OCC2=NCCN2)c1"
Result: inactive

Request: Moving on to "Oc1ccc(Cl)cc1Cc1ccccc1"
Result: active

Request: Moving on to "CC(=O)[C@H]1CC[C@H]2[C@@H]3CC[C@H]4C[C@](C)(O)CC[C@]4(C)[C@H]3CC[C@]12C"
Result: inactive

Request: Moving on to Clc1ccc(COC(Cn2ccnc2)c2ccc(Cl)cc2Cl)cc1 (stereo unspecified)
Result: active

Request: Moving on to CC1NCCOC1c1ccccc1 (stereo unspecified)
Result: inactive

Request: Moving on to "C=C(C)[C@H]1Cc2c(ccc3c2O[C@@H]2COc4cc(OC)c(OC)cc4[C@@H]2C3=O)O1"
Result: inactive
